- method-summary: chemical genetic growth profiling, strain panel (AID 1159580);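 note: tested at 20 µM; growth read once vehicle control cultures reached saturation at 30 °C; 1 = growth at the plate median or of vehicle wells; lower values mean less growth of the strain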
- applied-conditions: S. cerevisiae deletion strains, growth OD, locus YKL160W, strain elf1
The campaign covered roughly 5,500 compounds. About 2,000 (36%) were called active. Roughly 18% stayed inconclusive and do not appear here. Cut-off read from the data, not from the text of the source: active = normalized growth mostly below about 0.91 (no sharp cut-off); inconclusive = no clear call, values can overlap the other calls; inactive = mostly above about 0.92. The list shows a part of the results.
// allowed return values: YES = active, NO = inactive

Solved cases below.
1. CCCCC(CC)CN1CN(CC(CC)CCCC)CC(C)(N)C1 (configuration not stated)
YES
2. OC[C@@H](O)[C@@H](O[C@@H]1O[C@H](CO)[C@@H](O)[C@H](O)[C@H]1O)[C@H](O)[C@@H](O)CO
NO
3. COc1c2c(cc3c1OCO3)CCN(C)C2
NO
4. NCCCC[C@H](N[C@@H](CCc1ccccc1)C(=O)O)C(=O)N1CCC[C@H]1C(=O)O
NO
5. CN/C(=C\[N+](=O)[O-])NCCSCc1ccc(CN(C)C)o1
NO

How was CC1(C)CCCC2(C)C3C1[C@@H](O)C2(C)C[C@H]3O (some centres not stated) classified in this test?
NO

What call does the record list for O=C1CCCC2C3CC(CN12)[C@@H]1CCCCN1C3 (some centres not stated) ?
NO

// param item: `CC(=O)NCCCS(=O)(=O)O` ; yields the recorded call
NO

---

normalized growth listing for selected compounds.
- method-summary: chemical genetic growth profiling, strain panel (AID 1159580)
- applied-conditions: S. cerevisiae deletion strains, growth OD, locus YLR102C, strain apc9, hits give low values
Among all 5,500 compounds or so, about 2,000 (36%) were called active. Roughly 18% stayed inconclusive and do not appear here. Some of the results follow.
Answer using only a numeral; do not append any unit.

Worked cases, answers included:
1. COC(=O)C[C@H]1C(C)(C)C(=O)[C@@H]2CC3=C4CC(=O)O[C@@H](c5ccoc5)[C@]4(C)CCC3[C@@]1(C)C2=O (some centres undefined)
1.01
2. CC(=O)Nc1ccc(S(=O)(=O)Nc2ccc([N+](=O)[O-])cc2)cc1
0.994
3. Cc1c(O)c(O)cc2c1CC=C1[C@@]2(C)CC[C@@]2(C)C3C[C@](C)(C(=O)O)CC[C@]3(C)CC[C@]12C (some centres undefined)
0.984
4. C=C(CC)C(=O)c1ccc(OCC(=O)O)c(Cl)c1Cl
0.972
5. CC(=O)OCC1(C)CCC2(C)CCC3(C)C4=CCc5c(cc(OC(C)=O)c(OC(C)=O)c5C)C4(C)CCC3(C)C2C1 (centres undefined)
1

Given the compound CC(=O)O[C@H]1C[C@@H](OC(C)=O)C(C)(C)C2C[C@@H](OC(C)=O)[C@@]3(C)C4=CC(=O)O[C@@H](c5ccoc5)[C@]4(C)CCC3[C@]21C (some centres undefined) , what is its reported normalized growth?
0.989

What value of normalized growth has been reported for the following compound? C=CC(C1=CC(=O)C(OC)=CC1=O)c1ccc(O)cc1 (centres undefined)
0.984

I would be grateful if you could share the reported normalized growth for C=CC(C1=CC(=O)C=CC1=O)c1ccccc1 (centres undefined) .
0.978

Look up normalized growth: C=CC(C1=CC(=O)C(OC)=CC1=O)c1ccccc1 (centres undefined)
0.949

---

- method-summary: chemical genetic growth profiling, strain panel (AID 1159580)
- applied-conditions: S. cerevisiae deletion strains, growth OD, locus YMR125W, strain sto1, hits give low values
About 2,000 (36%) of roughly 5,500 compounds were called active. Not shown: some 18% with an inconclusive outcome. Some of the results follow.
So basically: is normalized growth under 1? Then criterion met. Not under? Then criterion not met.

Examples from the recorded data:
1. C=C(C)[C@H]1CC=C(C(=O)O)CC1
criterion not met
2. C=CC(C)(O)CC/C=C(\C)CCC=C(C)C (configuration not stated)
criterion met
3. C/C=C/c1ccc2c(c1)OCO2
criterion not met
4. Oc1c(Br)cc(Br)c2cccnc12
criterion met

Below 1 on normalized growth? Entry `COc1cc(C(=O)NCc2ccc(OCCN(C)C)cc2)cc(OC)c1OC`
criterion met

---

- method-summary: chemical genetic growth profiling, strain panel (AID 1159580)
- applied-conditions: S. cerevisiae deletion strains, growth OD, locus YPL241C, strain CIN2
The campaign covered roughly 5,500 compounds. About 2,000 (36%) were called active. Another 18% or so got no clear call; they are omitted. No stated cut-off is given here; in the data, active means normalized growth mostly below about 0.91 (no sharp cut-off); inconclusive means no clear call, values can overlap the other calls; inactive means mostly above about 0.92. Some of the results follow.
The reply should be one of these categories: active, inactive

Worked set:
1. CC(C)(C)C(=O)NC(=S)Nc1cccc(C(F)(F)F)c1
active
2. CN1C(CC(=O)c2ccccc2)CCCC1CC(O)c1ccccc1 (stereo unspecified)
inactive
3. COc1ccc(-c2c(C)nc3ccc(Cl)cc3c2-c2ccccc2)cc1OC
active
4. CCCC(C)C1(CC)C(=O)N=C(S)NC1=O (stereo unspecified)
inactive
5. Cc1ccsc1/C=C/C1=NCCCN1C
inactive
6. CO[C@@]1(NC(=O)CSCC#N)C(=O)N2C(C(=O)O)=C(CSc3nnnn3C)CS[C@@H]21
inactive
7. COc1cc(C2N=C(c3ccc(Cl)cc3)SC(c3ccc(Cl)cc3)=N2)cc(OC)c1OC
inactive
8. C=CCC1(C(C)CCC)C(=O)N=C(S)NC1=O (stereo unspecified)
inactive
9. CCCC(C)C1(CC)C(=O)NC(=O)NC1=O (stereo unspecified)
inactive
10. CCOP(=S)(OCC)SCn1c(=O)oc2cc(Cl)ccc21
inactive

Dear colleague, could you share the recorded outcome for `Cc1cccc(C(=O)NCN2CCN(c3ccccc3C#N)CC2)c1` when you have a moment?
inactive

---

- method-summary: chemical genetic growth profiling, strain panel (AID 1159580);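 note: tested at 20 µM; growth read once vehicle control cultures reached saturation at 30 °C; 1 = growth at the plate median or of vehicle wells; lower values mean less growth of the strain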
- applied-conditions: S. cerevisiae deletion strains, growth OD, locus YLR371W, strain rom2, hits give low values
The campaign covered roughly 5,500 compounds. About 2,000 (36%) were called active. Another 18% or so got no clear call; they are omitted. Some of the results follow.
Quick reference: normalized growth of the listed items.
The response must contain the number and no unit.

1) CC1(C)C(=O)C=CC2(C)C3CCC4(C)C(c5ccoc5)CC5OC54C3C(O)CC12 (stereo not drawn)
1
2) CC(=O)OC1CC(OC(C)=O)C2(C)C(CC(OC(C)=O)C3(C)C2CCC2(C)C(c4ccoc4)CC4OC423)C1(C)C (stereo not drawn)
1.02
3) CC(=O)O[C@@H]1C[C@@]2(C)[C@H](c3ccoc3)C[C@H]3O[C@]32[C@]2(C)C(=O)C(O)=C3C(C)(C)C(=O)C=C[C@]3(C)C12 (stereo partly drawn)
0.731
4) CCC(Cc1c(I)cc(I)c(N)c1I)C(=O)O (stereo not drawn)
1

Form field: reported normalized growth of `C[n+]1cccc(C(=O)[O-])c1`
0.994

Could you tell me which normalized growth is on file for CC(=O)O[C@@H]1CC2C(C)(C)C=CC(=O)[C@]2(C)C2CC[C@@]3(C)[C@H](c4ccoc4)OC(=O)C4OC43[C@@]21C (stereo partly drawn) ?
1.01

Endpoint output: normalized growth of CC1(C)C(=O)C=C[C@@]2(C)C1=C(O)C(=O)[C@]1(C)C2CC[C@@]2(C)[C@H](c3ccoc3)C[C@H]3O[C@]321 (stereo partly drawn) . Value?
0.706

Look up normalized growth for this compound: CC1(C)C(O)CC(O)C2(C)C1CC(O)C1(C)C2CCC2(C)C(c3ccoc3)CC3OC321 (stereo not drawn)
0.994

---

- method-summary: chemical genetic growth profiling, strain panel (AID 1159580);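 note: tested at 20 µM; growth read once vehicle control cultures reached saturation at 30 °C; 1 = growth at the plate median or of vehicle wells; lower values mean less growth of the strain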
- applied-conditions: S. cerevisiae deletion strains, growth OD, locus YER155C, strain BEM2 (second series), hits give low values
Screen size: about 5,500 compounds; about 2,000 (36%) were called active. About 18% were inconclusive and are not listed. Some of the results follow.
readout-name: normalized growth

Please review the entries below; each comes with its answer.
1. O=C1C=CC2=C3c4cc(O)c(O)cc4CC3(O)COC2=C1O (configuration not stated)
1.03 (inactive)
2. C=CCC1(C(C)CCC)C(=O)N=C(S)NC1=O (configuration not stated)
0.928 (inactive)
3. C=CC(C1=CC(=O)C(OC)=CC1=O)c1ccc(O)cc1 (configuration not stated)
0.891 (inactive)
4. CCCC(C)C1(CC)C(=O)NC(=O)NC1=O (configuration not stated)
0.999 (inactive)
5. CC(C)(C)NCC(O)c1ccccc1Cl (configuration not stated)
0.958 (inactive)
6. O=C(O)c1ccccc1Nc1ccccc1
0.909 (inactive)

Attention now shifts to the item below.
Quick check: normalized growth of `COc1cc(OC)c2c(=O)c(-c3ccccc3)c(C)oc2c1OC` ?
0.978 (inactive)

---

- method-summary: chemical genetic growth profiling, strain panel (AID 1159580);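 note: tested at 20 µM; growth read once vehicle control cultures reached saturation at 30 °C; 1 = growth at the plate median or of vehicle wells; lower values mean less growth of the strain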
- applied-conditions: S. cerevisiae deletion strains, growth OD, locus YOR106W, strain vam3, hits give low values
Hit rate of the full screen: of about 5,500 compounds, about 2,000 (36%) were called active. About 18% were inconclusive and are not listed. The list shows a part of the results.
readout-name: normalized growth
Keep it simple and answer with nothing but the number.

See these solved cases before continuing.
1) CN/C(=C\[N+](=O)[O-])NCCSCc1ccc(CN(C)C)o1
0.999
2) COC(C)(C)CCC[C@H](C)C/C=C/C(C)=C/C(=O)OC(C)C
0.948
3) Nc1ncnc2c1ncn2[C@@H]1O[C@H](CO)[C@@H](O)[C@H]1O
0.971

Recorded normalized growth of CC(=O)O[C@@H]1CC2C(C)(C)C=CC(=O)[C@]2(C)C2CC[C@@]3(C)[C@H](c4ccoc4)OC(=O)C4OC43[C@@]21C (stereo partly drawn) , please.
1.01

May I ask what normalized growth has been recorded for CC(=O)O[C@H]1C[C@@H](OC(C)=O)C(C)(C)C2C[C@@H](OC(C)=O)[C@@]3(C)C4=CC(=O)O[C@@H](c5ccoc5)[C@]4(C)CCC3[C@]21C (stereo partly drawn) ?
1

Consider the compound shown here: Nc1ncnc2c1ncn2C1C[C@H](O)[C@@H](CO)O1 (stereo partly drawn) What is its recorded normalized growth?
1.01

For the compound shown here, CCCC1O[C@@H]2CC3C4CCC5=CC(=O)C=CC5(C)C4[C@@H](O)CC3(C)[C@]2(C(=O)CO)O1 (stereo partly drawn) , give the reported normalized growth.
1.03

Quick one: normalized growth of CC1(C)C(=O)C=C[C@@]2(C)C1=C(O)C(=O)[C@]1(C)C2CC[C@@]2(C)[C@H](c3ccoc3)C[C@H]3O[C@]321 (stereo partly drawn) ?
0.801
